System: Fibroblast
Assay: Multiplex assay against human fibroblast
Format: toxicity, cell-based
Conditions: 24 h, 10 µM, compound concentration 10 uM, replicate 1
The following molecules are shown together with reported Population Hoechst High Intensity Objects (%) values.
test.readout: Population Hoechst High Intensity Objects (%)

{"molecule": "C[C@H](NC(=O)CNC(=O)c1cccc(Cl)c1)c1ccccc1", "measured": 2}
{"molecule": "COc1ccc2c(c1OCc1ccccc1)C[C@@H](C(=O)O)N(C(=O)C(c1ccccc1)c1ccccc1)C2 [OLODANRIGAN]", "measured": 2}
{"molecule": "COCCCN1CCC(NC(=O)c2cc(Cl)c(N)c3c2OCC3)CC1 [PRUCALOPRIDE]", "measured": 6}
{"molecule": "Cc1c(Cc2ccc3ccccc3n2)c2cc(F)ccc2n1CC(=O)O [TIMAPIPRANT]", "measured": 2}
{"molecule": "Cc1nn(C)c2nc(NNC(=O)Nc3cc(Cl)nc(Cl)c3)cc(C(C)C)c12", "measured": 4}
{"molecule": "COc1cc(Nc2ncc3c(n2)-c2ccc(Cl)cc2C(c2c(F)cccc2OC)=NC3)ccc1C(=O)O [ALISERTIB]", "measured": 13}
{"molecule": "O=C(NCCNCC(O)COc1ccc(O)cc1)N1CCOCC1.O=C(NCCNCC(O)COc1ccc(O)cc1)N1CCOCC1.O=C(O)/C=C/C(=O)O (configuration not stated) [XAMOTEROL FUMARATE]", "measured": 1}
{"molecule": "CN(C)C/C=C/C(=O)Nc1ccc(C(=O)N2CCCC(Nc3ncc(Cl)c(-c4c[nH]c5ccccc45)n3)C2)cc1 (configuration not stated)", "measured": 2}
{"molecule": "COc1ccc2[nH]c(I)c(CCNC(C)=O)c2c1 [IODOMELATONIN]", "measured": 2}
{"molecule": "CC(C)(C)c1ccc(CSc2cnn(C(C)(C)C)c(=O)c2Cl)cc1 [PYRIDABEN]", "measured": 2}
{"molecule": "Cc1ccc(OCC(O)C(C)NC(C)C)c2c1CCC2.Cl (configuration not stated)", "measured": 1}
{"molecule": "COc1cc2nc(N3CCN(C(=O)c4ccco4)CC3)nc(N)c2cc1OC.Cl [PRAZOSIN HYDROCHLORIDE]", "measured": 3}

# credit: ChEMBL document CHEMBL5058577
